Recorded Inhibition rate (%) by entry
# System: human retinal capillary endothelial cells (HRCECs)
# PROCEDURE_DETAILS: MTT proliferation inhibition on HRCECs
# Type: cell-based
# SETTINGS: 48 h, dose 0.05 μM
Peptide text beside a SMILES is read from it. * marks the point of attachment. X58 = O=C1C=CC(=O)N1c1cccc(CCCCCCCCCCCC(=O)*)c1; X68 = O=C1C=CC(=O)N1c1ccccc1CCCCCCCCCCCC(=O)*; X72 = O=C1C=CC(=O)N1c1ccccc1CCCCCCCCCCC(=O)*; X60 = O=C1C=CC(=O)N1c1ccccc1CCCCCCCCCC(=O)*; X63 = O=C1C=CC(=O)N1c1ccccc1CCCCCCC(=O)*; X49 = O=C1C=CC(=O)N1c1ccccc1CCCCCC(=O)*
Just the number in %*, nothing appended.

C[C@H](NC(=O)CNC(=O)[C@H](CCCNC(=N)N)NC(=O)CCCCCCCCCc1ccccc1N1C(=O)C=CC1=O)C(=O)N[C@@H](CC(=O)O)C(=O)N[C@@H](CCCNC(=N)N)C(=O)N[C@@H](C)C(=O)NCC(=O)NCC(=O)NCC(=O)NCC(=O)N[C@@H](CCCNC(=N)N)C(=O)NCC(=O)N[C@@H](CC(=O)O)C(=O)O [X21] (X60-RGADRAGGGGRGD-OH)    48.85
C[C@H](NC(=O)CNC(=O)[C@H](CCCNC(=N)N)NC(=O)CCCCCCCCCCc1ccccc1N1C(=O)C=CC1=O)C(=O)N[C@@H](CC(=O)O)C(=O)N[C@@H](CCCNC(=N)N)C(=O)N[C@@H](C)C(=O)NCC(=O)NCC(=O)NCC(=O)NCC(=O)N[C@@H](CCCNC(=N)N)C(=O)NCC(=O)N[C@@H](CC(=O)O)C(=O)O [X22] (X72-RGADRAGGGGRGD-OH)    49.30
C[C@H](NC(=O)CNC(=O)[C@H](CCCNC(=N)N)NC(=O)CCCCCCCCCCCc1cccc(N2C(=O)C=CC2=O)c1)C(=O)N[C@@H](CC(=O)O)C(=O)N[C@@H](CCCNC(=N)N)C(=O)N[C@@H](C)C(=O)NCC(=O)NCC(=O)NCC(=O)NCC(=O)N[C@@H](CCCNC(=N)N)C(=O)NCC(=O)N[C@@H](CC(=O)O)C(=O)O [X35] (X58-RGADRAGGGGRGD-OH)    43.91
C[C@H](NC(=O)CNC(=O)[C@H](CCCNC(=N)N)NC(=O)CCCCCc1ccccc1N1C(=O)C=CC1=O)C(=O)N[C@@H](CC(=O)O)C(=O)N[C@@H](CCCNC(=N)N)C(=O)N[C@@H](C)C(=O)NCC(=O)NCC(=O)NCC(=O)NCC(=O)N[C@@H](CCCNC(=N)N)C(=O)NCC(=O)N[C@@H](CC(=O)O)C(=O)O [X17] (X49-RGADRAGGGGRGD-OH)    55.10
C[C@H](NC(=O)CNC(=O)[C@H](CCCNC(=N)N)NC(=O)CCCCCCCCCCCc1ccccc1N1C(=O)C=CC1=O)C(=O)N[C@@H](CC(=O)O)C(=O)N[C@@H](CCCNC(=N)N)C(=O)N[C@@H](C)C(=O)NCC(=O)NCC(=O)NCC(=O)NCC(=O)N[C@@H](CCCNC(=N)N)C(=O)NCC(=O)N[C@@H](CC(=O)O)C(=O)O [X23] (X68-RGADRAGGGGRGD-OH)    45.59

Then this compound:
Exercise: Tell me measured Inhibition rate (%) for C[C@H](NC(=O)CNC(=O)[C@H](CCCNC(=N)N)NC(=O)CCCCCCc1ccccc1N1C(=O)C=CC1=O)C(=O)N[C@@H](CC(=O)O)C(=O)N[C@@H](CCCNC(=N)N)C(=O)N[C@@H](C)C(=O)NCC(=O)NCC(=O)NCC(=O)NCC(=O)N[C@@H](CCCNC(=N)N)C(=O)NCC(=O)N[C@@H](CC(=O)O)C(=O)O [X18] (X63-RGADRAGGGGRGD-OH) please.
Key: 42.60

The origin of these recorded values is patent US20200270309A1.
